# Test system: HOP-92 NSCLC
# method-summary: NCI tumour cell line growth inhibition, 48 h; in the data active = GI50 below about 0.43 µM; inactive = the rest
Pick one and only one: active, inactive

COc1ccc(-c2cc(-c3ccc(Cl)cc3)nc(SCCCC(=O)NO)n2)cc1OC :: inactive

**Q:** Which outcome was entered for the molecule "CCN(CC)CCOc1ccc(/C(=C(\C)Cc2ccc(OC)cc2)c2ccc(O)cc2)cc1" in this test?
**A:** inactive

**Q:** Status in this test for "CN1C(=O)[C@@H](CC2CCCC2)N(C2CCCC2)c2nc(Nc3cc(Cl)c(O)c(Cl)c3)ncc21" ?
**A:** inactive

* * *

# Tested on: SW-620 colon
# method-summary: NCI tumour cell line growth inhibition, 48 h; in the data active = GI50 below about 0.43 µM; inactive = the rest
Thanks in advance; please answer with one of these: yes (1) (active), no (0) (inactive)

Known results for compounds:
N#Cc1c(-c2ccccc2)nc(SCC(O)CN2CCOCC2)nc1N1CCOCC1 (stereo unspecified) :: no (0)
CCOC(=O)C(Cc1ccccc1)n1c(O)c(/C=N/c2ncc(Cc3ccc(Cl)cc3Cl)s2)sc1=S (stereo unspecified) :: no (0)
CC(=O)NC(CCc1ccc(Cl)c(Cl)c1)c1cccc(O)c(=O)c1 (stereo unspecified) :: no (0)

**Q:** Hey, what did the test say about CCN(CC)CCN1C(=O)c2c(c3c4cccc(Cl)c4n(C4OC(CO)C(OC)C(O)C4O)c3c3[nH]c4c(Cl)cccc4c23)C1=O (stereo unspecified) ?
**A:** yes (1)

**Q:** # fetch the recorded call for "O=C1NC(=NCCc2ccccc2F)S/C1=C\c1ccc2ncccc2c1" here
**A:** no (0)

**Q:** So what was the verdict on "COc1cccc(N2C(=N)/C(=C3\Nc4ccccc4S3)CC2=O)c1" in this test?
**A:** no (0)

**Q:** Could you check what this test reported for "CC(=O)[CH-]C(=O)c1ccccc1.CC(=O)[CH-]C(=O)c1ccccc1.CC(=O)[CH-]C(=O)c1ccccc1.[Cl-].[Hf+4]" ?
**A:** no (0)

**Q:** Give the logged outcome of this assay for the following compound: "CCCCNC(=O)CC1=C(C)/C(=C/c2[nH]c(-c3ccc[nH]3)cc2OC)N=C1C"
**A:** no (0)

**Q:** How was CCCCCCCCCCCCCCCC(=O)OCC1OC(OCCCC)[C@H](O[C@@H]2OC(C)C(OC(=O)CCC)C(O)C2O)C(O)C1O (stereo partly specified) classified in this test?
**A:** no (0)

**Q:** Could you please tell me the result logged for "CN(C)C/C=C/C(=O)Nc1ccc(C(=O)Nc2cccc(Nc3ncc(Cl)c(-c4c[nH]c5ccccc45)n3)c2)cc1" in this assay?
**A:** yes (1)

**Q:** Lab log entry: "C=CCc1cc(O)ccc1O" — outcome as called in the assay?
**A:** no (0)

**Q:** Test call for this compound, please: "Cc1cc2c(C(C)C)c(O)c(O)c(/C=N/O)c2c(O)c1-c1c(C)cc2c(C(C)C)c(O)c(O)c(/C=N/O)c2c1O"
**A:** no (0)

**Q:** What call does the record list for "Cn1ccc(S(=O)(=O)N2CCC[C@H](Nc3nccc(-c4c(-c5cccc(O)c5)nc5occn45)n3)C2)n1" ?
**A:** no (0)

**Q:** Fill in: this test's call for "CC(C)(Oc1cccc(N2CCC[C@@H](C(=O)N(Cc3ccc(-c4cn[nH]c4)cc3)C3CC3)C2)c1)C(=O)N1CCNCC1" is ___
**A:** no (0)

**Q:** // return assay outcome for "CCN(CC)CCOc1ccc2c(-c3ccccc3)c(-c3ccc(OC)cc3)c(=O)oc2c1"
**A:** no (0)

**Q:** Tell me the assay call for "O=C(Nc1nc2ccc(OC(F)(F)F)cc2s1)c1ccc(F)cc1" please.
**A:** no (0)

**Q:** // return assay outcome for "Cc1cc2c3c(nc4ccccc42)C(=O)c2cccnc2-c3n1"
**A:** yes (1)

**Q:** Could you please tell me the result logged for "CCN(CC)CCOc1ccc(/C(=C(\C)Cc2ccc(OC)cc2)c2ccc(O)cc2)cc1" in this assay?
**A:** no (0)

**Q:** Fill in: this test's call for "Cc1cc(NS(=O)(=O)c2ccc(-c3cnc(C4CC4)o3)cc2)ccc1Cl" is ___
**A:** yes (1)

**Q:** Status in this test for "Cc1ccc(/C=C(/C#N)n2nnc3cccc(F)c32)cc1" ?
**A:** yes (1)

**Q:** Record lookup: outcome of this test for "CN1CCN(CCCCCOc2cc(O)c3c(=O)cc(-c4ccccc4)oc3c2)CC1" ?
**A:** no (0)

* * *

# Test system: UACC-62 melanoma
# method-summary: NCI tumour cell line growth inhibition, 48 h
quantity-name: TGI (µM)
Give bare numbers, in µM.

CC(C)N(CCNc1nc(C(Cl)(Cl)Cl)nc2cc(Cl)ccc12)C(C)C :: 3.22
CCN(CC)CCOc1ccc2c(-c3ccccc3)c(-c3ccc(OC)cc3)c(=O)oc2c1 :: 15

Shifting focus to the compound that follows.
**Q:** GET /values?readout=TGI&item= "C=C(Cl)[C@](Cl)(CBr)CC[C@@H](Br)C(C)(C)Cl"
**A:** 19.3

* * *

# System: MALME-3M melanoma
# method-summary: NCI tumour cell line growth inhibition, 48 h
quantity-name: GI50

Cc1cc2c(C(C)C)c(O)c(O)c(/C=N/O)c2c(O)c1-c1c(C)cc2c(C(C)C)c(O)c(O)c(/C=N/O)c2c1O :: 3.91 µM
CN1CCC(=C(c2ccc(Cl)cc2)c2ccccn2)CC1 :: 40.9 µM
Cn1cc(Nc2nccc(-c3ccc4c(c3)CN(C3COC3)CC[C@H]4NC(=O)c3cn(C(C)(C)C)nn3)n2)cn1 :: 38 µM
CC(=O)NC(CCc1ccc(Cl)c(Cl)c1)c1cccc(O)c(=O)c1 (stereo not given) :: 1.45 µM

We now examine a further compound.
**Q:** Could you tell me which GI50 is on file for "O=C(NNC1=NS(=O)(=O)c2ccccc2N1c1ccccc1)c1cnccn1" ?
**A:** > 100 µM

* * *

Kindly supply the reported GI50 values for the records listed here.
# Test system: NCI/ADR-RES ovarian
# method-summary: NCI tumour cell line growth inhibition, 48 h

Batch of 5 compounds: report GI50 for each.
1. Oc1ccc(/C=N/NC(=S)Nc2ccccc2)nc1
2. CN1CCC(=C(c2ccc(Cl)cc2)c2ccccn2)CC1
3. C/C=C(/C)C(=O)OC1C=C(CO)C(=O)C(OC(=O)C2(C)OC2C)C1C(C)C (stereo not given)
4. O=C1NC(=NCCc2ccccc2F)S/C1=C\c1ccc2ncccc2c1
5. O=C(NNC1=NS(=O)(=O)c2ccccc2N1c1ccccc1)c1cnccn1

**A:**
1.43 µM
> 100 µM
3.18 µM
9.2 µM
> 100 µM

* * *

# Test system: SK-MEL-28 melanoma
# method-summary: NCI tumour cell line growth inhibition, 48 h
quantity-name: TGI

Answered examples (2):
COc1ncnc2c(Cl)c(C(O)c3ccccc3)c(Cl)cc12 (stereo not drawn) :: > 100 µM
CCc1n[nH]c(=O)n1-n1c(C)ccc1C :: > 100 µM

**Q:** Can you share its TGI? I mean this compound: "COC(=O)CSc1cc(Cl)c(C)cc1S(=O)(=O)Nc1n[nH]c(N)n1"
**A:** > 10 µM

* * *

# System: OVCAR-5 ovarian
# method-summary: NCI tumour cell line growth inhibition, 48 h
quantity-name: TGI

For each of the items listed, what is its TGI?
1. CCP(C)(=O)CC
2. CCOC(=O)CCCc1cc(=O)c2c(C)c3[nH]c4ccc(Cl)cc4c3c(C)c2[nH]1
3. COc1cc2c(SCCN(C)C)nc3ccccc3c2c2ccccc12
4. CCCCCCCCCCCCCCCC(=O)OCC1OC(OCCCC)[C@H](O[C@@H]2OC(C)C(OC(=O)CCC)C(O)C2O)C(O)C1O (stereo partly drawn)
5. CSc1ncc2c(C#N)c3n(C)c4ccccc4n3c(=O)c2n1

**A:**
1. > 100 µM
2. > 100 µM
3. 4.03 µM
4. 27.6 µM
5. > 100 µM

* * *

# System: CCRF-CEM leukemia
# method-summary: NCI tumour cell line growth inhibition, 48 h; in the data active = GI50 below about 0.43 µM; inactive = the rest
Form entry, call: pick from active, inactive

**Q:** State the result this test recorded for "Cc1ncnc2c1ccn2[C@@H]1C[C@H](Oc2cc(C(F)F)c(F)c3c2CNCC3)[C@@H](O)[C@H]1O" .
**A:** inactive

**Q:** What did this assay record as the result for CC[C@]1(O)CC2CN(CCc3c([nH]c4ccccc34)C(C(=O)OC)(c3cc4c(cc3OC)N(C=O)[C@H]3[C@@](O)(C(=O)OC)[C@H](OC(C)=O)[C@]5(CC)[C@@H]6C[C@@H]6CN6CC[C@]43[C@@H]65)C2)C1 (some centres undefined) ?
**A:** active

**Q:** Fill in: this test's call for "O=C1NC(=NCCc2ccccc2F)S/C1=C\c1ccc2ncccc2c1" is ___
**A:** inactive

Sourced from PubChem BioAssay (NCI)
